- Tested on: MDA-MB-435 melanoma
- experimental.protocol: NCI-60 one-dose screen, 48 h (100 = growth as untreated, 0 = no growth, -100 = all killed)
- measurement.parameters: 10 µM unless noted
- Experimental: Growth inhibition of the MDA-MB-435 human Melanoma tumor cell line is measured as a screen for anti-cancer activity. Cells are grown in 96 well plates and exposed to the test compound for 48 hours. Compounds are tested at a single concentration, which is 10^-5 M for most compounds. The reported endpoint is percent growth (GI% or GIPRCNT), where numbers from 0 - 100% represent growth inhibition, and numbers from -100% - 0 represent cell death. […]
This is part of a sample that, as a whole, favours compounds with a hit. Of some 83,000 tested, about 20% had one in any assay.
reported.endpoint: growth (%)

[[record]]
compound = "Nc1ccc(Nc2nccc(-c3ccc4ccccc4c3)n2)cc1"
value = 8.53

[[record]]
compound = "O=C(Nc1cccc2[nH]c(C(F)(F)F)nc12)c1ccc(Br)cc1F"
value = 26.9

[[record]]
compound = "COc1ccc(N(Cc2cc(OC)c(OC)c(OC)c2)C2OC(=O)c3ccccc32)cc1 (stereo unspecified)"
value = -55

[[record]]
compound = "C=C1CC2(OC1=O)C(=O)N(CCCCCCCN1C(=O)C3(CC(=C)C(=O)O3)c3ccccc31)c1ccccc12 (stereo unspecified)"
value = 6.35

[[record]]
compound = "CC1=C(NCCN2CCCC2)C(=O)c2c(OCc3ccc(F)c(Cl)c3)cccc2C1=O"
value = 40

[[record]]
compound = "COc1ccc(CCN2CCCn3c2nc2ccccc2c3=O)cc1"
value = -15.2

[[record]]
compound = "CC/C(Cc1ccccc1)=C(\\c1ccc(OCCN2CCCC2)cc1)c1ccc(OC(C)=O)cc1"
value = 69.7

[[record]]
compound = "COc1cc(/C=N/N(C)C)ccc1O"
value = 106

[[record]]
compound = "O=C1C2CC=CCC2C(=O)N1CNc1ccc(Cl)cc1 (stereo unspecified)"
value = 108

[[record]]
compound = "O=[N+]([O-])c1c(F)cccc1Nc1cccc(F)c1"
value = 105

[[record]]
compound = "CCCCCCCCCCCCS(=O)CC(C)O (stereo unspecified)"
value = 96.3


----------
- System: SK-MEL-5 melanoma
- experimental.protocol: NCI-60 one-dose screen, 48 h (100 = growth as untreated, 0 = no growth, -100 = all killed)
- measurement.parameters: 10 µM unless noted
This is part of a sample that, as a whole, favours compounds with a hit. Of some 83,000 tested, about 20% had one in any assay.
Reported growth is given for each of the following compounds.
reported.endpoint: growth (%)

[[record]]
compound = "CCN(CC)CCCC(C)NCCCNc1cccc2cccnc12 (stereo not given)"
target_or_test_system = "SK-MEL-5 melanoma"
reported_endpoint = "growth"
value = 98.5

[[record]]
compound = "CNc1cc2nc3cc(NC)c(C)cc3cc2cc1C"
target_or_test_system = "SK-MEL-5 melanoma"
reported_endpoint = "growth"
value = 35.7

[[record]]
compound = "CC(=O)Oc1cc2cnc3c4cc(OC(C)=O)c(OC(C)=O)cc4ccc3c2cc1OC(C)=O"
target_or_test_system = "SK-MEL-5 melanoma"
reported_endpoint = "growth"
value = 13.1

[[record]]
compound = "COc1cnc2c(c1)C(=O)c1c-2n(CCCN2CCN(C)CC2)c(=O)c2cc([N+](=O)[O-])ccc12"
target_or_test_system = "SK-MEL-5 melanoma"
reported_endpoint = "growth"
value = -97.5

[[record]]
compound = "COc1ccc(CCN2CC=Cn3c2nc2ccccc2c3=O)cc1"
target_or_test_system = "SK-MEL-5 melanoma"
reported_endpoint = "growth"
value = -13.8


----------
- Test system: OVCAR-3 ovarian
- experimental.protocol: NCI-60 one-dose screen, 48 h (100 = growth as untreated, 0 = no growth, -100 = all killed)
- measurement.parameters: 10 µM unless noted
About 83,000 compounds went through this panel and 20% of them were active in at least one assay; those are over-represented in the sample as a whole.
reported.endpoint: growth (%)

[[record]]
compound = "CN1CCN(c2ccc3nc(-c4ccc5nc(-c6ccc(OCCC(C)(C)C)cc6)[nH]c5c4)[nH]c3c2)CC1"
target_or_test_system = "OVCAR-3 ovarian"
value = -83.6

[[record]]
compound = "O=C1/C(=C/c2ccccc2)CN(CCC(=O)N2C/C(=C\\c3ccccc3)C(=O)/C(=C/c3ccccc3)C2)C/C1=C\\c1ccccc1"
target_or_test_system = "OVCAR-3 ovarian"
value = 32.8

[[record]]
compound = "Cn1c(=O)c2[nH]c(C(O)C(O)C(O)C(O)CO)nc2n(C)c1=O (stereo unspecified)"
target_or_test_system = "OVCAR-3 ovarian"
value = 109

[[record]]
compound = "COc1ccc(-c2cc(/C=C3\\C(=O)Nc4ccc(Cl)cc43)[nH]n2)cc1"
target_or_test_system = "OVCAR-3 ovarian"
value = 31.6

[[record]]
compound = "Cn1c2c(Cl)c(Cl)ccc2c2ccn3c(=O)c4ccccc4nc3c21"
target_or_test_system = "OVCAR-3 ovarian"
value = 113

[[record]]
compound = "CCOC(=O)C(=Cc1ccccc1F)C(=O)OCC"
target_or_test_system = "OVCAR-3 ovarian"
value = 95.2


----------
- Test system: SNB-19 CNS
- experimental.protocol: NCI-60 one-dose screen, 48 h
- measurement.parameters: 10 µM unless noted
- Method: Growth inhibition of the SNB-19 human tumor cell line is measured as a screen for anti-cancer activity. Cells are grown in 96 well plates and exposed to the test compound for 48 hours. Compounds are tested at a single concentration, which is 10^-5 M for most compounds. The reported endpoint is percent growth (GI% or GIPRCNT), where numbers from 0 - 100% represent growth inhibition, and numbers from -100% - 0 represent cell death. For example, a value of 40 represents 60% growth inhibition. […]
The panel holds about 83,000 compounds, 20% with a hit somewhere; the sample as a whole holds those more often. Active and inactive are the calls of the source. How the source made its calls: active means growth percent below 10; inactive means the rest.
Classes used: True for active, False for inactive

[[record]]
compound = "CCCCCCCCSC1=CC(=O)C(OC)=C(OC)C1=O"
qualitative_label = "False"

[[record]]
compound = "COc1cccc2c1C(=O)c1c(O)c3c(c(O)c1C2=O)C[C@@](O)(/C(C)=N/NC(=O)c1ccc(Cl)cc1)C[C@@H]3OC1CC(N)C(O)C(C)O1 (stereo partly drawn)"
qualitative_label = "True"

[[record]]
compound = "NS(=O)(=O)c1ccc(-n2ncc3c(=O)[nH]c(CN4CCN(c5cc6c(cc5F)c(=O)c(C(=O)O)cn6C5CC5)CC4)nc32)cc1"
qualitative_label = "False"

[[record]]
compound = "CC[C@]12C=CCN3CC[C@@]4(c5ccc(OC)cc5N(C)[C@H]4[C@@](O)(C(=O)OC)[C@@H]1OC(=O)CCC(=O)N[C@@H](Cc1c[nH]c4ccccc14)C(=O)OC)[C@@H]32"
qualitative_label = "False"

[[record]]
compound = "Cc1ccc(-c2nc(/C=N/Nc3cc(C)nc4ccc(Cl)cc34)c(C)o2)cc1"
qualitative_label = "True"

[[record]]
compound = "CCOC(=O)c1c2c(n3ccc(NC(=O)CCN4CCCCC4)cc13)C(=O)c1ncccc1C2=O"
qualitative_label = "True"

[[record]]
compound = "Cc1ccc(Nc2nc(N)nc(Nc3ccc4ccccc4c3)n2)cc1"
qualitative_label = "False"

[[record]]
compound = "CNCc1cccc2c1OCCOCCOCCN(C)S(=O)(=O)c1ccc(cc1)-c1cnc(N)c(n1)C(=O)N2"
qualitative_label = "False"


----------
- Tested on: BT-549 breast
- experimental.protocol: NCI-60 one-dose screen, 48 h
- measurement.parameters: 10 µM unless noted
The panel holds about 83,000 compounds, 20% with a hit somewhere; the sample as a whole holds those more often. Activity calls are given as the source filed them. Rule for the calls: active = growth percent below 10; inactive = the rest.
Classes used: TRUE for active, FALSE for inactive

[[record]]
compound = "CC#Cc1nc2ccccc2c(=O)[nH]1"
qualitative_label = "FALSE"

[[record]]
compound = "C#Cc1nc(Nc2cc(C)[nH]n2)c2ccccc2n1"
qualitative_label = "TRUE"

[[record]]
compound = "Cc1cc2c(cc1C)NC1=C(N2)OC(c2c3ccccc3cc3ccccc23)C1=O (stereo not given)"
qualitative_label = "TRUE"

[[record]]
compound = "COc1cccc(-c2nc3sccn3c2-c2ccnc(NCCCNS(=O)(=O)c3ccccc3)c2)c1"
qualitative_label = "TRUE"

[[record]]
compound = "CNC(=S)N/N=C/CSC/C=N/NC(=S)NC"
qualitative_label = "FALSE"

[[record]]
compound = "CN1CCOCCOCCOc2ccccc2NC(=O)c2nc(cnc2N)-c2ccc(cc2)S1(=O)=O"
qualitative_label = "FALSE"

[[record]]
compound = "Cc1ccc(NC(=O)c2sc3nc4c(cc3c2N)C(=O)CCC4)cc1C"
qualitative_label = "FALSE"

[[record]]
compound = "CCCCCCCCCCCCCCCCCCNC(=O)[C@H]1CSC(c2ccc(F)c(OC)c2)N1 (stereo not given in full)"
qualitative_label = "TRUE"

[[record]]
compound = "COc1ccc(/C=C/C(=O)c2c(O)c(C)c(O)c3c2OC2=CC(O)=C(C(C)=O)C(=O)[C@]23C)cc1"
qualitative_label = "TRUE"

[[record]]
compound = "CCCCCCCCCCCCCCCCCCNC(=O)[C@H]1CSC(c2ccc(OC)c(F)c2)N1 (stereo not given in full)"
qualitative_label = "TRUE"

